Reported melting temperature values for a set of sequences
# System: HeLa Kyoto;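 also: HeLa Kyoto cells synchronized by double thymidine or nocodazole block, proteins quantified by TMT10plex mass spectrometry, three independent biological replicates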
# Method Description: melting temperature (median over replicates), in situ; higher = more thermally stable
# Details: cell cycle stage: mitosis
Enter your answer as a number in °C; do not include the unit.

Examples with their reported melting temperature follow.
>  <Biopolymer Sequence>
MSAPLDAALHALQEEQARLKMRLWDLQQLRKELGDSPKDKVPFSVPKIPLVFRGHTQQDPEVPKSLVSNLRIHCPLLAGSALITFDDPKVAEQVLQQKEHTINMEECRLRVQVQPLELPMVTTIQMSSQLSGRRVLVTGFPASLRLSEEELLDKLEIFFGKTRNGGGDVDVRELLPGSVMLGFARDGVAQRLCQIGQFTVPLGGQQVPLRVSPYVNGEIQKAEIRSQPVPRSVLVLNIPDILDGPELHDVLEIHFQKPTRGGGEVEALTVVPQGQQGLAVFTSESG [IFI35]

>  <Property Measured>
melting temperature

>  <Measure Unit>
°C

>  <Recorded Result>
55.2

$$$$
>  <Biopolymer Sequence>
MDGKQGGMDGSKPAGPRDFPGIRLLSNPLMGDAVSDWSPMHEAAIHGHQLSLRNLISQGWAVNIITADHVSPLHEACLGGHLSCVKILLKHGAQVNGVTADWHTPLFNACVSGSWDCVNLLLQHGASVQPESDLASPIHEAARRGHVECVNSLIAYGGNIDHKISHLGTPLYLACENQQRACVKKLLESGADVNQGKGQDSPLHAVARTASEELACLLMDFGADTQAKNAEGKRPVELVPPESPLAQLFLEREGPPSLMQLCRLRIRKCFGIQQHHKITKLVLPEDLKQFLLHL [ASB9]

>  <Property Measured>
melting temperature

>  <Measure Unit>
°C

>  <Recorded Result>
54.2

$$$$

INPUT: Determine from records and report melting temperature for MSMEDPFFVVKGEVQKAVNTAQGLFQRWTELLQDPSTATREEIDWTTNELRNNLRSIEWDLEDLDETISIVEANPRKFNLDATELSIRKAFITSTRQVVRDMKDQMSTSSVQALAERKNRQALLGDSGSQNWSTGTTDKYGRLDRELQRANSHFIEEQQAQQQLIVEQQDEQLELVSGSIGVLKNMSQRIGGELEEQAVMLEDFSHELESTQSRLDNVMKKLAKVSHMTSDRRQWCAIAILFAVLLVVLILFLVL [STX6]
OUTPUT: 52.9
